Target: Gastrin/cholecystokinin type B receptor (Cavia porcellus)
Test: Binding affinity against cholecystokinin type B receptor on guinea pig cortex.
pKi: −log10 of the molar value. Numbered stars: 1 amine (or outer) side, 2 acyl side, 3 side chain; on linkers, the order of the positions; unused ones are H or OH. Square brackets hold non-standard residues; d marks the D form. Peptide text beside a SMILES is read from it. * marks the point of attachment. Heptanedioyl = O=C(CCCCCC(=O)[*:2])[*:1]; NMeNle = CCCC[C@H](NC)C(=O)O; X2 = COC(=O)CC(=O)*
propertyName: pKi

Example results:
INSERT INTO assay_data (compound, measuredtarget, propertyname, resultvalue) VALUES
  ('CCCC[C@@H](C(=O)N[C@@H](CC(=O)O)C(=O)N[C@@H](Cc1ccccc1)C(N)=O)N(C)C(=O)[C@H](Cc1c[nH]c2ccccc12)NC(=O)[C@H](C)N', 'Gastrin/cholecystokinin type B receptor (Cavia porcellus)', 'pKi', 7.70),
  ('CCCC[C@@H](C(=O)N[C@@H](CC(=O)O)C(=O)N[C@@H](Cc1ccccc1)C(N)=O)N(C)C(=O)[C@H](Cc1c[nH]c2ccccc12)NC(=O)CC(=O)OC (X2-W[NMeNle]DF-NH2)', 'Gastrin/cholecystokinin type B receptor (Cavia porcellus)', 'pKi', 8.44);

I = CCCC[C@@H](C(=O)N[C@@H](CC(=O)O)C(=O)N[C@@H](Cc1ccccc1)C(N)=O)N(C)C(=O)[C@@H](N)Cc1c[nH]c2ccccc12 (H-W[NMeNle]DF-NH2)
II = CCCC[C@@H](C(=O)N[C@@H](CC(=O)O)C(=O)N[C@@H](Cc1ccccc1)C(N)=O)N(C)C(=O)[C@H](Cc1c[nH]c2ccccc12)NC(=O)CCCCCC(=O)O (Heptanedioyl-W[NMeNle]DF-NH2)
Pick one: I or II . Which one has the lower reported pKi? Please indicate the selected item by its label.
II

====

Molecular target: Gastrin/cholecystokinin type B receptor (Cavia porcellus)
Experiment: Binding affinity against cholecystokinin type B receptor on guinea pig cortex.
pKi: −log10 of the molar value. Square brackets hold non-standard residues; d marks the D form. Peptide text beside a SMILES is read from it. * marks the point of attachment. NMeNle = CCCC[C@H](NC)C(=O)O; Malonamoyl = NC(=O)CC(=O)*; Methoxyacetyl = COCC(=O)*; X3 = O=C(CS(=O)(=O)O)*; Boc = CC(C)(C)OC(=O)*; X4 = CC(=O)CC(=O)*; βAla = NCCC(=O)O
propertyName: pKi

Example results:
INSERT INTO results (molecule, resultvalue) VALUES
  ('CCCC[C@@H](C(=O)N[C@@H](CC(=O)O)C(=O)N[C@@H](Cc1ccccc1)C(N)=O)N(C)C(=O)[C@H](Cc1c[nH]c2ccccc12)NC(=O)COC (Methoxyacetyl-W[NMeNle]DF-NH2)', 8.60),
  ('CCCC[C@@H](C(=O)N[C@@H](CC(=O)O)C(=O)N[C@@H](Cc1ccccc1)C(N)=O)N(C)C(=O)[C@H](Cc1c[nH]c2ccccc12)NC(=O)CCNC(=O)OC(C)(C)C ({Boc-βAla}-W[NMeNle]DF-NH2)', 8.87);

I = CCCC[C@@H](C(=O)N[C@@H](CC(=O)O)C(=O)N[C@@H](Cc1ccccc1)C(N)=O)N(C)C(=O)[C@H](Cc1c[nH]c2ccccc12)NC(=O)CC(N)=O (Malonamoyl-W[NMeNle]DF-NH2)
II = CCCC[C@@H](C(=O)N[C@@H](CC(=O)O)C(=O)N[C@@H](Cc1ccccc1)C(N)=O)N(C)C(=O)[C@H](Cc1c[nH]c2ccccc12)NC(=O)CC(C)=O (X4-W[NMeNle]DF-NH2)
III = CCCC[C@@H](C(=O)N[C@@H](CC(=O)O)C(=O)N[C@@H](Cc1ccccc1)C(N)=O)N(C)C(=O)[C@H](Cc1c[nH]c2ccccc12)NC(=O)CS(=O)(=O)O (X3-W[NMeNle]DF-NH2)
IV = CCCC[C@@H](C(=O)N[C@@H](CC(=O)O)C(=O)N[C@@H](Cc1ccccc1)C(N)=O)N(C)C(=O)[C@H](Cc1c[nH]c2ccccc12)NC(=O)CCN (H-[βAla]W[NMeNle]DF-NH2)
Hey, can you sort those molecules up there by pKi, smallest first? List labels; respect the requested ordering.
IV, II, I, III
